Values from ChEMBL document CHEMBL2177092

Would you mind telling me the reported pIC50 of each entry?
- Tested on: HeLa
- ASSAY NAME: Cytostatic activity against human HeLa cells […] by cell counting
- Format: functional, cell-based
Here pIC50 is given on a logarithmic scale as minus log10 of the concentration in mol/L.

stdin: Record lookup: for HeLa, what pIC50 belongs to C[C@H](NP(=O)(OC[C@H]1O[C@@H](n2cc(F)c(=O)[nH]c2=O)C[C@@H]1O)Oc1ccccc1)C(=O)OCc1ccccc1 (mixture of isomers) ?
stdout: 6.89

stdin: Fill in the recorded pIC50 for this compound, with HeLa as test system: CCOC(=O)[C@H](C)NP(=O)(OC[C@H]1O[C@@H](n2cc(F)c(=O)[nH]c2=O)C[C@@H]1O)Oc1ccccc1 (mixture of isomers)
stdout: 6.32

stdin: I'm curious: which pIC50 was measured for C[C@H](NP(=O)(OC[C@H]1O[C@@H](n2cc(F)c(=O)[nH]c2=O)C[C@@H]1O)Oc1cccc2ccccc12)C(=O)OCC1CC1 (mixture of isomers) tested on HeLa?
stdout: 7.17

stdin: Lookup: pIC50 / HeLa / O=C(OCc1ccccc1)[C@H](Cc1ccccc1)NP(=O)(OC[C@H]1O[C@@H](n2cc(F)c(=O)[nH]c2=O)C[C@@H]1O)Oc1cccc2ccccc12 (mixture of isomers)
stdout: 6.80

stdin: Identify the measured pIC50 of CCCCCOC(=O)[C@H](CC(C)C)NP(=O)(OC[C@H]1O[C@@H](n2cc(F)c(=O)[nH]c2=O)C[C@@H]1O)Oc1cccc2ccccc12 (mixture of isomers) for HeLa.
stdout: 7.41

stdin: Lab note: need pIC50 for C[C@H](NP(=O)(OC[C@H]1O[C@@H](n2cc(F)c(=O)[nH]c2=O)C[C@@H]1O)Oc1cccc2ccccc12)C(=O)OC1CCCC1 (mixture of isomers) on HeLa, anyone have it?
stdout: 7.15

---

Exercise: state measured IC50 for each of the compounds provided.
- Tested on: L1210
- ASSAY NAME: Cytostatic activity against Mycoplasma hyorhinis-infected mouse L1210 cells after 48 hrs by cell counting
- Assay type: functional, cell-based
- STATED CONDITIONS: L1210, 48 h
Output spec: scalar in nM, unitless text.

stdin: Request the reported IC50 associated with O=C(OCc1ccccc1)[C@@H]1CCCN1P(=O)(OC[C@H]1O[C@@H](n2cc(F)c(=O)[nH]c2=O)C[C@@H]1O)Oc1cccc2ccccc12 (mixture of isomers)
stdout: 650

stdin: # IC50 lookup, item C[C@H](NP(=O)(OC[C@H]1O[C@@H](n2cc(F)c(=O)[nH]c2=O)C[C@@H]1O)Oc1cccc2ccccc12)C(=O)OC1CCCC1 (mixture of isomers)
stdout: 24

stdin: Which IC50 is reported for this compound? C[C@H](NP(=O)(OC[C@H]1O[C@@H](n2cc(F)c(=O)[nH]c2=O)C[C@@H]1O)Oc1cccc2ccccc12)C(=O)OC1CCCCC1 (mixture of isomers)
stdout: 49

stdin: I have this compound here, CC(C)OC(=O)[C@H](C)NP(=O)(OC[C@H]1O[C@@H](n2cc(F)c(=O)[nH]c2=O)C[C@@H]1O)Oc1ccccc1 (mixture of isomers) , and I need its recorded IC50.
stdout: 700

stdin: # get_value(readout='IC50', item= C[C@H](NP(=O)(OC[C@H]1O[C@@H](n2cc(F)c(=O)[nH]c2=O)C[C@@H]1O)Oc1cccc2ccccc12)C(=O)OC1CCC1 (mixture of isomers) )
stdout: 24

---

- Test system: L1210
- ASSAY NAME: Cytostatic activity against Mycoplasma hyorhinis-infected mouse L1210 cells after 48 hrs by cell counting
- Format: functional, cell-based
- STATED CONDITIONS: L1210, 48 h
For each of the molecules below, state its IC50.
I only need the number, in nM, no unit after it.

stdin: Fill in the blank: the reported IC50 of CC(C)(NP(=O)(OC[C@H]1O[C@@H](n2cc(F)c(=O)[nH]c2=O)C[C@@H]1O)Oc1ccccc1)C(=O)OCc1ccccc1 (mixture of isomers) is ____.
stdout: 20

stdin: Value lookup for IC50; key = CSCC[C@H](NP(=O)(OC[C@H]1O[C@@H](n2cc(F)c(=O)[nH]c2=O)C[C@@H]1O)Oc1cccc2ccccc12)C(=O)OCc1ccccc1 (mixture of isomers)
stdout: 200

stdin: For the molecule O=C(OCc1ccccc1)[C@H](Cc1ccccc1)NP(=O)(OC[C@H]1O[C@@H](n2cc(F)c(=O)[nH]c2=O)C[C@@H]1O)Oc1ccccc1 (mixture of isomers) , what IC50 is on record?
stdout: 560

stdin: Find the recorded IC50 belonging to CCCCCOC(=O)[C@H](Cc1ccccc1)NP(=O)(OC[C@H]1O[C@@H](n2cc(F)c(=O)[nH]c2=O)C[C@@H]1O)Oc1cccc2ccccc12 (mixture of isomers) and report it.
stdout: 140

---

- Test system: HeLa
- ASSAY NAME: Cytostatic activity against human HeLa cells […] by cell counting
- Assay type: functional, cell-based
MEASURED METRIC: pIC50
Remember the convention: pIC50 equals -log10 of concentration in molar.

stdin: Which pIC50 value is on record for CCCCCOC(=O)[C@H](CCSC)NP(=O)(OC[C@H]1O[C@@H](n2cc(F)c(=O)[nH]c2=O)C[C@@H]1O)Oc1ccccc1 (mixture of isomers) ?
stdout: 6.82

stdin: I am curious: what pIC50 value has been reported for CCCCCOC(=O)[C@H](Cc1ccccc1)NP(=O)(OC[C@H]1O[C@@H](n2cc(F)c(=O)[nH]c2=O)C[C@@H]1O)Oc1cccc2ccccc12 (mixture of isomers) ?
stdout: 7.40

stdin: For the compound O=C(OCc1ccccc1)[C@@H]1CCCN1P(=O)(OC[C@H]1O[C@@H](n2cc(F)c(=O)[nH]c2=O)C[C@@H]1O)Oc1cccc2ccccc12 (mixture of isomers) , what pIC50 is on record?
stdout: 5.92

stdin: # get_value(readout='pIC50', item= CCCCOC(=O)[C@H](C)NP(=O)(OC[C@H]1O[C@@H](n2cc(F)c(=O)[nH]c2=O)C[C@@H]1O)Oc1cccc2ccccc12 (mixture of isomers) )
stdout: 6.92

stdin: # query: pIC50 of entry CSCC[C@H](NP(=O)(OC[C@H]1O[C@@H](n2cc(F)c(=O)[nH]c2=O)C[C@@H]1O)Oc1cccc2ccccc12)C(=O)OCc1ccccc1 (mixture of isomers)
stdout: 7.06

stdin: Could you tell me which pIC50 is on file for C[C@H](NP(=O)(OC[C@H]1O[C@@H](n2cc(F)c(=O)[nH]c2=O)C[C@@H]1O)Oc1cccc2ccccc12)C(=O)OC1CCOCC1 (mixture of isomers) ?
stdout: 6.89

stdin: What measured pIC50 goes with CC(C)C[C@H](NP(=O)(OC[C@H]1O[C@@H](n2cc(F)c(=O)[nH]c2=O)C[C@@H]1O)Oc1ccccc1)C(=O)OCc1ccccc1 (mixture of isomers) ?
stdout: 7.17

stdin: Reported pIC50 for C[C@H](NP(=O)(OC[C@H]1O[C@@H](n2cc(F)c(=O)[nH]c2=O)C[C@@H]1O)Oc1cccc2ccccc12)C(=O)OC1CCC1 (mixture of isomers) : what is it?
stdout: 7.16

stdin: Given the compound CC(C)C[C@H](NP(=O)(OC[C@H]1O[C@@H](n2cc(F)c(=O)[nH]c2=O)C[C@@H]1O)Oc1cccc2ccccc12)C(=O)OCc1ccccc1 (mixture of isomers) , what is its reported pIC50?
stdout: 7.10

stdin: Record request: pIC50 value, item C[C@H](NP(=O)(OC[C@H]1O[C@@H](n2cc(F)c(=O)[nH]c2=O)C[C@@H]1O)Oc1ccccc1)C(=O)OC1CCCCC1 (mixture of isomers)
stdout: 6.74

stdin: Look at this compound and give its reported pIC50. O=C(OCc1ccccc1)[C@H](Cc1ccccc1)NP(=O)(OC[C@H]1O[C@@H](n2cc(F)c(=O)[nH]c2=O)C[C@@H]1O)Oc1ccccc1 (mixture of isomers)
stdout: 7.85

stdin: Quick check: pIC50 of CCOC(=O)[C@H](C)NP(=O)(OC[C@H]1O[C@@H](n2cc(F)c(=O)[nH]c2=O)C[C@@H]1O)Oc1cccc2ccccc12 (mixture of isomers) ?
stdout: 6.66

stdin: Consider the compound shown here: C[C@H](NP(=O)(OC[C@H]1O[C@@H](n2cc(F)c(=O)[nH]c2=O)C[C@@H]1O)Oc1cccc2ccccc12)C(=O)OCCC(C)(C)C (mixture of isomers) What is its recorded pIC50?
stdout: 7.11

stdin: Can you share its pIC50? I mean this compound: CCOC(=O)[C@@H](NP(=O)(OC[C@H]1O[C@@H](n2cc(F)c(=O)[nH]c2=O)C[C@@H]1O)Oc1ccccc1)C(C)C (mixture of isomers)
stdout: 5.92

stdin: I am curious: what pIC50 value has been reported for C[C@H](NP(=O)(OC[C@H]1O[C@@H](n2cc(F)c(=O)[nH]c2=O)C[C@@H]1O)Oc1cccc2ccccc12)C(=O)OCC(C)(C)C (mixture of isomers) ?
stdout: 6.15

stdin: Tell me the measured pIC50 of C[C@H](NP(=O)(OC[C@H]1O[C@@H](n2cc(F)c(=O)[nH]c2=O)C[C@@H]1O)Oc1cccc2ccccc12)C(=O)OC1CCCCC1 (mixture of isomers) , please.
stdout: 7.05

stdin: Name the recorded pIC50 for C[C@H](NP(=O)(OC[C@H]1O[C@@H](n2cc(F)c(=O)[nH]c2=O)C[C@@H]1O)Oc1cccc2ccccc12)C(=O)OC1Cc2ccccc2C1 (mixture of isomers) .
stdout: 7.00

stdin: Requested field: pIC50. Item: C[C@H](NP(=O)(OC[C@H]1O[C@@H](n2cc(F)c(=O)[nH]c2=O)C[C@@H]1O)Oc1cccc2ccccc12)C(=O)OCc1ccccc1 (mixture of isomers) [FOSIFLOXURIDINE NAFALBENAMIDE]
stdout: 7.19
